Measured inhibition accompanies every entry in the list below.
- measurement-target: UniProt Q9UBN7
- Sequence (Q9UBN7 whole entry): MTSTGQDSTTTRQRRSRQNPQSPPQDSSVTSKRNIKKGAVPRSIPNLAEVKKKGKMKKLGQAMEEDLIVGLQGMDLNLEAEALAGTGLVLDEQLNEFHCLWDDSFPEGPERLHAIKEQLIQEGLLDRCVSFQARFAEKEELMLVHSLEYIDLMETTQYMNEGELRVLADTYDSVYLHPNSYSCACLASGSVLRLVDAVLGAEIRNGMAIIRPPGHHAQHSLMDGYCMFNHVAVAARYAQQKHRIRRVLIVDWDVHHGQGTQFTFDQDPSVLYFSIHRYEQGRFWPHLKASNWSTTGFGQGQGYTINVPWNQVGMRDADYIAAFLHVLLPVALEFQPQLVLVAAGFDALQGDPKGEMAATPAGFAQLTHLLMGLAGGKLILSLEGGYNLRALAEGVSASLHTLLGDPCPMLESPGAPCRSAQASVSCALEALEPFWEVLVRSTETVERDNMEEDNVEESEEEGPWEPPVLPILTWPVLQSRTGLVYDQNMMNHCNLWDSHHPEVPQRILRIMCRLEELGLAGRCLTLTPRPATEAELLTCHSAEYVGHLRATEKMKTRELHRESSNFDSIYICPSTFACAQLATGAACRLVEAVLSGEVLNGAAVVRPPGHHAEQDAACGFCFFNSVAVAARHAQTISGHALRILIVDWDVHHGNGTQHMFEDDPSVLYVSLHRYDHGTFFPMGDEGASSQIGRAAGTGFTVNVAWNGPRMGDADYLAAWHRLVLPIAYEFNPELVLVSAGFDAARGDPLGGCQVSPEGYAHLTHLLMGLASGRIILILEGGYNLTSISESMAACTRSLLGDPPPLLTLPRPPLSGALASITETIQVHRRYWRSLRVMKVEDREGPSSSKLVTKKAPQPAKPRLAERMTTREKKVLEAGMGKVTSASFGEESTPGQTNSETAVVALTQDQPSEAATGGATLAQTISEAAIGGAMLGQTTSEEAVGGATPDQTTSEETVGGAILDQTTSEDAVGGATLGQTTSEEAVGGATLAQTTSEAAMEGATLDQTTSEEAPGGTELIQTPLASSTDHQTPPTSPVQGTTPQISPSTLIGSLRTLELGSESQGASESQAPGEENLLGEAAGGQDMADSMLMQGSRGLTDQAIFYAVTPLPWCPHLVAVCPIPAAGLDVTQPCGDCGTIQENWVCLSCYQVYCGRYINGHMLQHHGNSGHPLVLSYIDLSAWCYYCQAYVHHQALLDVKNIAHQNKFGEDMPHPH
- run-conditions: dose 100.0 nM
- Description: Inhibition of HDAC6 (unknown origin) at 100 nM

[
  {
    "compound": "Nc1ccc(-c2cn(Cc3ccc(C(=O)NO)cc3)c(=O)c(N3CCOCC3)n2)cn1",
    "unit-tag": "%",
    "inhibition": 91
  },
  {
    "compound": "O=C(NO)c1ccc(Cn2cc(-c3ccc(O)cc3)nc(N3CCOCC3)c2=O)cc1",
    "unit-tag": "%",
    "inhibition": 94
  },
  {
    "compound": "Nc1ncc(-c2cn(CCCCCC(=O)NO)c(=O)c(N3CCOCC3)n2)cn1",
    "unit-tag": "%",
    "inhibition": 45
  },
  {
    "compound": "O=C(NO)c1ccc(Cn2cc(-c3cccnc3)nc(N3CCOCC3)c2=O)cc1",
    "unit-tag": "%",
    "inhibition": 92
  },
  {
    "compound": "O=C(NO)c1ccc(Cn2cc(-c3cccc4[nH]ncc34)nc(N3CCOCC3)c2=O)cc1",
    "unit-tag": "%",
    "inhibition": 90
  },
  {
    "compound": "O=C(NO)c1ccc(Cn2cc(-c3cncnc3)nc(N3CCOCC3)c2=O)cc1",
    "unit-tag": "%",
    "inhibition": 69
  },
  {
    "compound": "O=C(NO)c1ccc(Cn2cc(-c3cccc(O)c3)nc(N3CCOCC3)c2=O)cc1",
    "unit-tag": "%",
    "inhibition": 94
  },
  {
    "compound": "Nc1ncc(-c2cc(N3CCOCC3)c(=O)n(Cc3ccc(C(=O)NO)cc3)c2)cn1",
    "unit-tag": "%",
    "inhibition": 95
  },
  {
    "compound": "Nc1ncc(-c2cc(N3CCOCC3)c(=O)n(Cc3ccc(C(=O)NO)cc3)n2)cn1",
    "unit-tag": "%",
    "inhibition": 94
  },
  {
    "compound": "Nc1ncc(-c2cn(CCCCCCCC(=O)NO)c(=O)c(N3CCOCC3)n2)cn1",
    "unit-tag": "%",
    "inhibition": 27
  }
]

----------
- measurement-target: Phosphatidylinositol 4,5-bisphosphate 3-kinase catalytic subunit alpha isoform (Homo sapiens)
- Sequence (P42336 whole entry, canonical isoform): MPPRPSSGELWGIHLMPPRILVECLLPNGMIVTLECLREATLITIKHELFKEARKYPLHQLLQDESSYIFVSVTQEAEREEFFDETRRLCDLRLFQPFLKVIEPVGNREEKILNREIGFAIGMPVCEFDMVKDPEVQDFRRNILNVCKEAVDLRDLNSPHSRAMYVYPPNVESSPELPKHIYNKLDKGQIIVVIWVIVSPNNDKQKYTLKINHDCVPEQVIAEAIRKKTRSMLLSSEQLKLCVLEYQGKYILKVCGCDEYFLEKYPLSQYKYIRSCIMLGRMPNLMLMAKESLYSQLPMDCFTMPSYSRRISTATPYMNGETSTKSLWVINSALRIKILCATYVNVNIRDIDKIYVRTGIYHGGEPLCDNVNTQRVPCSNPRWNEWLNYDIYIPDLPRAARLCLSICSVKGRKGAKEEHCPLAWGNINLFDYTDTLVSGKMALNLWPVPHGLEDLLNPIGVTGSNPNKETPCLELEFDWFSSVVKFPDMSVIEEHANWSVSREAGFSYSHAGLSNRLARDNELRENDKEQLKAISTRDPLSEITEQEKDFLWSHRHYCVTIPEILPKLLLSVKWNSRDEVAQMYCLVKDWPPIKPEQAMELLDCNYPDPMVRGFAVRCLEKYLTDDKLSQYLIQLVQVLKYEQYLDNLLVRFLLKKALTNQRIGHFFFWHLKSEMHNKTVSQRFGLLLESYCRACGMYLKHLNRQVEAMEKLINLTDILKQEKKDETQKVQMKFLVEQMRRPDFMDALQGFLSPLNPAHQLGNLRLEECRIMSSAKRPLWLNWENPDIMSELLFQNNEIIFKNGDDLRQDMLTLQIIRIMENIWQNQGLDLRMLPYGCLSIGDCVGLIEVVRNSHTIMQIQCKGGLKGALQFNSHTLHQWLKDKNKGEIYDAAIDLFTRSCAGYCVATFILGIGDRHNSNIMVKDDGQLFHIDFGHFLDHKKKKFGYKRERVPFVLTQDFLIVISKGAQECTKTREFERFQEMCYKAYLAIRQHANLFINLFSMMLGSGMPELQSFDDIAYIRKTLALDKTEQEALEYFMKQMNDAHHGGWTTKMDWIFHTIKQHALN
- measurement-notes: Inhibition of PI3Kalpha (unknown origin) by mobility shift assay
Measured IC50 accompanies every entry in the list below.
quantity-name: IC50 (µM)

[
  {
    "compound": "O=C(NO)c1ccc(Cn2cc(-c3cccc(O)c3)nc(N3CCOCC3)c2=O)cc1",
    "value": 0.467
  },
  {
    "compound": "Nc1ncc(-c2cn(CCCCCCCC(=O)NO)c(=O)c(N3CCOCC3)n2)cn1",
    "value": 0.278
  },
  {
    "compound": "CCCn1cc(-c2cnc(N)nc2)nc(N2CCOCC2)c1=O",
    "value": 0.025
  },
  {
    "compound": "Nc1ncc(-c2cn(CCCCCCC(=O)NO)c(=O)c(N3CCOCC3)n2)cn1",
    "value": 0.127
  },
  {
    "compound": "CNc1ncc(-c2cn(Cc3ccc(C(=O)NO)cc3)c(=O)c(N3CCOCC3)n2)cn1",
    "value": 0.336
  },
  {
    "compound": "O=C(NO)c1ccc(Cn2cc(-c3cccc4[nH]ncc34)nc(N3CCOCC3)c2=O)cc1",
    "value": 0.373
  },
  {
    "compound": "Nc1ncc(-c2cn(CCCCCC(=O)NO)c(=O)c(N3CCOCC3)n2)cn1",
    "value": 0.157
  },
  {
    "compound": "Nc1ncc(-c2cn(Cc3ccc(C(=O)NO)cc3)c(=O)c(N3CCOCC3)n2)cn1",
    "value": 0.197
  }
]
